# tested on: T1, GFRα4 isoform a (GFRα4a), Fc fusion with 6 His (human)
# T1 construct: the entry holds the whole fusion; also called GFR4α4a; immobilized GFRα4 isoform a
# T1 chain: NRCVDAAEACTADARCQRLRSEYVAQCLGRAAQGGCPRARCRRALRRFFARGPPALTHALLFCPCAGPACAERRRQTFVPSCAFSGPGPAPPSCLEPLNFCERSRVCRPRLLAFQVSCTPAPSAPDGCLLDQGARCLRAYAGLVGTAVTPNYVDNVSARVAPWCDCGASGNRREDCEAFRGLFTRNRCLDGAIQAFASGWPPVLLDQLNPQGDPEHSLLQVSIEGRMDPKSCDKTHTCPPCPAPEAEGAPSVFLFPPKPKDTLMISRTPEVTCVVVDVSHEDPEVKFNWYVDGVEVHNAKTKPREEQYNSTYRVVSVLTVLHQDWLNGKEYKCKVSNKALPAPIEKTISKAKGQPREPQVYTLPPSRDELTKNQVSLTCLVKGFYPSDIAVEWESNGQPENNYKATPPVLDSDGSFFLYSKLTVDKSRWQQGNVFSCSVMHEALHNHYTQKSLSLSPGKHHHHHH
# method summary: phage ELISA, immobilized GFRα4a; first token of the cell
endpoint name: binding result

INSERT INTO measurements (binder, test_value) VALUES
  ('14.H1.L1m1 (scFv, pIII not in the entry; order Vλ-linker-VH; also called scFv 14) scFv: QFVLTQSPSASASLGASVKLTCTLSSAHKTYTIDWYQQQPEKGPRYLMQVKSDGSYTKGTGVPDRFSGSSSGADRYLTISSLQSEDEADYYCGADDNGGYVFGGGTQLTVTGGGSSRSSSSGGGGSGGGGQVQLQESGPGLVKPSETLSLTCAVSGYSISRHALTWIRQPPGKGLEWIGAIDNAGTTYYASWAKSRVTISVDTSKNQFSLKLSSVTAADTAVYYCARVFYDINSGYYLDGMDLWGPGTLVTVSS', 'binds'),
  ('18.H1.L3m3 (scFv, pIII not in the entry; order Vλ-linker-VH; also called scFv 18) scFv: QSALTQPASVSGSPGQSITISCTGTSAHKTYTIDWYQQHPGKAPKLMIYVKSDGSYTKGTGVSNRFSGSKSGNTASLTISGLQAEDEADYYCGADDNGGYVFGGGTQLTVLGGGSSRSSSSGGGGSGGGGQVQLQESGPGLVKPSETLSLTCAVSGYSISRHALTWIRQPPGKGLEWIGAIDNAGTTYYASWAKSRVTISVDTSKNQFSLKLSSVTAADTAVYYCARVFYDINSGYYLDGMDLWGPGTLVTVSS', 'no binding'),
  ('27.H1.L3m4 (scFv, pIII not in the entry; order Vλ-linker-VH; also called scFv 27) scFv: QSALTQPASVSGSPGQSITISCTGTSAHKTYTVSWYQQHPGKAPKYLMQVKSDGSYTKGTGVPNRFSGSSSGADRYLTISGLQAEDEADYYCGADDNGGYVFGGGTQLTVLGGGSSRSSSSGGGGSGGGGQVQLQESGPGLVKPSETLSLTCAVSGYSISRHALTWIRQPPGKGLEWIGAIDNAGTTYYASWAKSRVTISVDTSKNQFSLKLSSVTAADTAVYYCARVFYDINSGYYLDGMDLWGPGTLVTVSS', 'no binding');
